Tested on: GCaMP5-expressing T. gondii
Construct: whole extracellular parasites expressing GCaMP5 Ca2+ sensor
Parameters: species or system GCaMP5-expressing Toxoplasma gondii, extracellular; GCaMP5 fluorescence (cytosolic Ca2+) after 100 uM zaprinast in compound-pretreated extracellular parasites, background-subtracted, relative to zaprinast alone
condition.label: 100 uM zaprinast stimulation; 10 min pretreatment; mean of two replicates; 0.23 h
Task for the reader: assign each of the following compounds its reported fold change in fluorescence relative to zaprinast alone.
Numbers only.

> print(dat)
                                   compound  numeric.value
1  COc1cc2ncn(-c3cc(OCc4ccccc4C(F)(F)F)c(C(C)=O)s3)c2cc1OC [GSK1030059A]          1.158

// each compound listed below needs its fold change in fluorescence relative to zaprinast alone
1. C[C@@H](Oc1cc(-n2cnc3ccc(-c4ccncc4)cc32)sc1C(N)=O)c1ccccc1Cl [GSK483724A]
2. CN1CCC(n2cnc(-c3ccc(F)cc3)c2-c2ccnc(Nc3ccccc3)n2)CC1
3. O=C(Nc1n[nH]c2nc(-c3nccs3)c(Br)cc12)C1CCCC1

Reply:
[1.04, 1.382, 1.102]

Measured values drawn from paper PMC4850295 for this set.
